Entry source: patent US4029799A

assay: Acute toxicity (i.p.), method of Lichfield and Wilcoxon; format: in vivo, I.C.R. Swiss mice, both sexes; details: mouse, in vivo, ip, mice, read-out: Lethal dose 50 (LD50)

# molecule, resultUnits, LD50
measured = [
    ("COc1cc(Cc2nccc(C)c2C)cc(OC)c1OC [Compound I]", "mg/kg", 250),
]
